Reference for the values: patent US20080269251A1

# System Tested: human adrenergic-α2C receptor (Homo sapiens)
# Construct: expressed in transfected cells; host or cells: CHO cells, stably transfected; membrane preparation
# Sequence (P18825 whole entry): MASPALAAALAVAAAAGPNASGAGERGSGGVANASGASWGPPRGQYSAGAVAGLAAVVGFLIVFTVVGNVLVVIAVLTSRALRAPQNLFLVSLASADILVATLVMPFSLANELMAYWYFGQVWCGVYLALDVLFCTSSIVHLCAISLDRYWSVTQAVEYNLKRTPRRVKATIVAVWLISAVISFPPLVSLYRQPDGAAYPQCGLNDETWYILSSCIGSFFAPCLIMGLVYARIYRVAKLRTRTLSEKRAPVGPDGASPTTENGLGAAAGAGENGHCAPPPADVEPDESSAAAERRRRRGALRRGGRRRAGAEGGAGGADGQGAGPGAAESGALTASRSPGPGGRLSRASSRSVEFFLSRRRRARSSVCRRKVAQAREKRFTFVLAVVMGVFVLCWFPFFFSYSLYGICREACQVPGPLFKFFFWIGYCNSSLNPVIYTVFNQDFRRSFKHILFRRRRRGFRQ
# Assay Info: Radioligand binding experiment for hα2C-adrenoceptor ([3H]raulwolscine)
# Condition Notes: [3H]raulwolscine 1 nM, 60 minutes at 25° C.; read-out: h-α2C pIC50 (converted)
Property Measured: IC50 (µM)

Look over these answered cases.
INSERT INTO assay_data (compound, property_measured, value) VALUES
  ('CC(CC(=O)NCc1ccc(-n2ccnc(NC3CCN(Cc4ccc5ccccc5c4)CC3)c2=O)cc1)CC(C)(C)C (stereo not drawn) [1-27]', 'IC50', 0.0631),
  ('NCc1ccc(-n2ccnc(NC3CCN(Cc4ccc5ccccc5c4)CC3)c2=O)cc1 [1-01]', 'IC50', 0.02),
  ('O=c1c(NC2CCN(Cc3ccc4ccccc4c3)CC2)nccn1Cc1cccc(Br)c1 [5-13]', 'IC50', 0.126),
  ('O=c1[nH]ccnc1NC1CCN(Cc2ccc3ccccc3c2)CC1 [5-01]', 'IC50', 0.126),
  ('CN(C)CCCn1ccnc(NC2CCN(Cc3ccc4ccccc4c3)CC2)c1=O [1-12]', 'IC50', 0.0316);

1: O=C(Cn1ccnc(NC2CCN(Cc3ccc4ccccc4c3)CC2)c1=O)Nc1ccc(F)cc1 [1-65]
2: Cc1ccc(CNCc2ccc(-n3ccnc(NC4CCN(Cc5ccc6ccccc6c5)CC4)c3=O)cc2F)o1 [1-84]
Input: Returns the identifier with the smallest measured IC50 among 1 and 2 . State your choice using its label.
Output: 2

I: CCCNC(=O)c1ccc(-n2ccnc(NC3CCN(Cc4ccc5ccccc5c4)CC3)c2=O)cc1 [1-09]
II: Cc1cc(CNC(=O)c2ccc(-n3ccnc(NC4CCN(Cc5ccc6ccccc6c5)CC4)c3=O)cc2)no1 [1-86]
Input: // which entry has the larger IC50 value, I or II ? Give the label under which the chosen entry appears.
Output: I

I: N#CCCn1ccnc(NC2CCN(Cc3ccc4ccccc4c3)CC2)c1=O [5-05]
II: O=c1c(NC2CCN(Cc3ccc4ccccc4c3)CC2)nccn1-c1ccc(CN2CCC(F)CC2)c(F)c1 [2-13]
Input: Could you please tell me which of these two has the higher IC50: I or II ? Mark your answer with the label of the selected entry.
Output: I

I: O=C(CCn1ccnc(NC2CCN(Cc3ccc4ncccc4c3)CC2)c1=O)c1ccccc1 [9-05]
II: O=c1c(NC2CCN(Cc3ccc4ccccc4c3)CC2)nccn1CCCO [3-02]
Input: # query: argmin of IC50 over I and II Use the label to indicate which entry you chose.
Output: II

----------
# System Tested: human adrenergic-α2C receptor (Homo sapiens)
# Construct: expressed in transfected cells; host or cells: CHO cells, stably transfected; membrane preparation
# Assay Info: Radioligand binding experiment for hα2C-adrenoceptor ([3H]raulwolscine)
# Condition Notes: [3H]raulwolscine 1 nM, 60 minutes at 25° C.; read-out: h-α2C pIC50 (converted)
Property Measured: IC50 (nM)

Worked examples follow.
INSERT INTO assay_data (compound, property_measured, value) VALUES
  ('O=c1c(NC2CCN(Cc3ccc4ccccc4c3)CC2)nccn1-c1ccc(CNCC2CCCO2)cc1 (centres unmarked) [1-79a]', 'IC50', 5.01),
  ('CCCCN(Cc1ccccc1)C(=O)Cn1ccnc(NC2CCN(Cc3ccc4ccccc4c3)CC2)c1=O', 'IC50', 39.8),
  ('Cc1ccc(CN(Cc2ccc(-n3ccnc(NC4CCN(Cc5ccc6ccccc6c5)CC4)c3=O)cc2)Cc2ccc(C)o2)o1', 'IC50', 79.4),
  ('O=c1c(NC2CCN(Cc3ccc4ccccc4c3)CC2)nccn1Cc1cc2ccccc2cn1', 'IC50', 63.1),
  ('O=c1c(NC2CCN(Cc3ccc4ccccc4c3)CC2)nccn1-c1ccc(CNCCF)c(F)c1', 'IC50', 7.94),
  ('NCCCn1ccnc(NC2CCN(Cc3ccc4ccccc4c3)CC2)c1=O', 'IC50', 50.1),
  ('O=c1c(NC2CCN(Cc3ccc4ccccc4c3)CC2)nccn1-c1cncnc1', 'IC50', 200),
  ('COC(CCn1ccnc(NC2CCN(Cc3ccc4ccccc4c3)CC2)c1=O)OC', 'IC50', 100);

P: O=c1c(NC2CCN(Cc3ccc4ccccc4c3)CC2)nccn1CCOC1CCCCO1 (centres unmarked)
Q: O=C(Cn1ccnc(NC2CCN(Cc3ccc4ccccc4c3)CC2)c1=O)N1CCC(Cc2ccccc2)CC1
Input: Would you mind telling me which has the lower recorded IC50 between P and Q ? Label of pick, please.
Output: Q
(Q: 31.6 nM, P: 79.4 nM)
